# Measurement notes: Plasma pharmacokinetics of sorafenib with RT, with or without CsA pretreatment, in freely moving rats
# Format: in vivo, Sprague-Dawley rats
# Reported conditions: Sprague-Dawley, rat, plasma, po, 40 mg/kg, sorafenib 40 mg/kg p.o. only (sham RT), rats
# Experimental: A freely moving rat model was designed for the current study[21] (Fig. 1A). […] Pharmacokinetic parameters, including the area under the concentration vs. time curve (AUC), terminal elimination phase t1/2, Cmax, MRT, total plasma clearance and Vss, were calculated using the PK calculation software WinNonlin Standard Edition, version 1.1 (Scientific Consulting, Apex, NC, USA) using a compartmental method.
Value type: AUC(0-t) (ng·h/mL)

CNC(=O)c1cc(Oc2ccc(NC(=O)Nc3ccc(Cl)c(C(F)(F)F)c3)cc2)ccn1 [sorafenib, Sorafenib]    12000

----------
# Measurement notes: Biliary excretion pharmacokinetics of Rho-123 after RT in freely moving rats
# Format: in vivo, Sprague-Dawley rats
# Reported conditions: Sprague-Dawley, rat, bile, iv, 0.2 mg/kg, biliary excretion, RT2Gy, Rho-123 0.2 mg/kg i.v. 10 min later (concurrent)
Value type: AUC(0-t) (ng·h/mL)

COC(=O)c1ccccc1-c1c2ccc(=N)cc-2oc2cc(N)ccc12    3170

----------
# Measurement notes: Biliary excretion pharmacokinetics of Rho-123 after RT in freely moving rats
# Assay type: in vivo, Sprague-Dawley rats
# Reported conditions: Sprague-Dawley, rat, bile, iv, 0.2 mg/kg, biliary excretion, RT2Gy, Rho-123 10 min later (concurrent); read-out: t½
Value type: half-life (min)

COC(=O)c1ccccc1-c1c2ccc(=N)cc-2oc2cc(N)ccc12    46

----------
# Measurement notes: Biliary excretion pharmacokinetics of Rho-123 after RT in freely moving rats
# Format: in vivo, Sprague-Dawley rats
# Reported conditions: Sprague-Dawley, rat, bile, iv, 0.2 mg/kg, biliary excretion, RT9Gy, Rho-123 24 hr later (sequential)
# Procedure: A freely moving rat model was designed for the current study[21] (Fig. 1A). Experimental rats were anesthetized with 1 g/mL urethane and 0.1 g/mL α-chloralose (1 mL/kg by intraperitoneal [i.p.] injection), and polyethylene tubes were then implanted in the right jugular vein for intravenous (i.v.) fluid administration. The right jugular vein was catheterized for blood sampling. The catheter traversed the subcutaneous tissue and was fixed in the dorsal neck region. […]
Value type: MRT (min)

COC(=O)c1ccccc1-c1c2ccc(=N)cc-2oc2cc(N)ccc12    50

----------
# Measurement notes: Plasma pharmacokinetics of sorafenib with RT, with or without CsA pretreatment, in freely moving rats
# Format: in vivo, Sprague-Dawley rats
# Reported conditions: Sprague-Dawley, rat, plasma, po, 40 mg/kg, RT2Gy, sorafenib 40 mg/kg p.o. 24 hr later
# Experimental: A freely moving rat model was designed for the current study[21] (Fig. 1A). […] Pharmacokinetic parameters, including the area under the concentration vs. time curve (AUC), terminal elimination phase t1/2, Cmax, MRT, total plasma clearance and Vss, were calculated using the PK calculation software WinNonlin Standard Edition, version 1.1 (Scientific Consulting, Apex, NC, USA) using a compartmental method.
Value type: AUC(0-t) (ng·h/mL)

CNC(=O)c1cc(Oc2ccc(NC(=O)Nc3ccc(Cl)c(C(F)(F)F)c3)cc2)ccn1 [sorafenib, Sorafenib]    4950

----------
# Measurement notes: Plasma pharmacokinetics of sorafenib with RT, with or without CsA pretreatment, in freely moving rats
# Type: in vivo, Sprague-Dawley rats
# Reported conditions: Sprague-Dawley, rat, plasma, oral, 40 mg/kg, plasma, CsA 20 mg/kg i.p. + RT2Gy, sorafenib 40 mg/kg 1 hr later
Value type: Tmax (h)

CNC(=O)c1cc(Oc2ccc(NC(=O)Nc3ccc(Cl)c(C(F)(F)F)c3)cc2)ccn1    3.3
